- TESTED ON: T1, CRBN, Q96SW2;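 also: pooled lentiviral library of zinc finger degron-EGFP fusions in mCherry-positive Jurkat cells, FACS-sorted after compound exposure, with degron abundance counted by next-generation sequencing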
- T1 chain: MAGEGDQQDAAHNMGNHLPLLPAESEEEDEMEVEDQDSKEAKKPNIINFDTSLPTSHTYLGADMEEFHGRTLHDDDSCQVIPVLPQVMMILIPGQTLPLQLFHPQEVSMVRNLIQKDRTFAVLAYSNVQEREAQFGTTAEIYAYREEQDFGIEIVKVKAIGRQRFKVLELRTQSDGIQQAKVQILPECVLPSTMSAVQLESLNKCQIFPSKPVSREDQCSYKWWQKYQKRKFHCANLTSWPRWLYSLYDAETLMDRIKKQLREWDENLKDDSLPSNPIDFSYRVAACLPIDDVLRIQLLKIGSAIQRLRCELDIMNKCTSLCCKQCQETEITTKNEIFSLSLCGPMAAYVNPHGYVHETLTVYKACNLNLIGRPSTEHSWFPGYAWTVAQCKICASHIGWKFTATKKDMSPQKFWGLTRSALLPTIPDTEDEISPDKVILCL
- RUN DESCRIPTION: log2 fold change of degron read counts, EGFP-low vs EGFP+ sorted cells (limma voom), compound-induced degradation; higher = more compound-induced degradation of the degron-EGFP fusion; degrons are variants of IKZF1/3 zinc finger 2; compound dose not given here
- EXPERIMENTAL SETUP: Jurkat; 18 h; compound: thalidomide
The full ranking holds about 8,300 sequences; the median of “log2 fold change of degron read counts, EGFP-low vs EGFP+ sorted cells (limma voom), compound-induced degradation” is about -1.1, and the highest 2% start at about 3.2. This excerpt belongs to a sample that is enriched for the highest values.
Recorded log2 fold change of degron read counts by entry

| INPUT SEQUENCE | log2 fold change of degron read counts |
| --- | --- |
| FMCEVCGACFTQKGNLLRHIKL [46F_47M_49E_50V_52G_53A_54C_55F_67L_, Q9UKT9] | 1.45 |
| FQCEVCGACFTQKGNLLRHIKL [46F_47Q_49E_50V_52G_53A_54C_55F_67L_, Q9UKT9] | 3.69 |
| FVCEVCGACFTQKGNLLRHIKL [46F_47V_49E_50V_52G_53A_54C_55F_67L_, Q9UKT9] | 2.7 |
| FLCEVCGACFTQKGNLLRHIKL [46F_47L_49E_50V_52G_53A_54C_55F_67L_, Q9UKT9] | 1.59 |
